Values were extracted from patent US10500207B2.

- systemUnderTest: Aβ1-42 peptide (Homo sapiens)
- experimentalDetails: Thioflavin T spectrofluorescence assay (ThT-assay): inhibition of Aβ1-42 aggregation (% inhibition at 330 μM; IC50 from dilution series)
- conditions: 24 h, read-out: Inhibition at 330 μM [%], ThT assay; 330 μM small molecule, 33 μM Aβ1-42 (10:1), 24 hrs at 37° C.; mean ± standard deviation of two independent experiments
Hi all, reminder that labels come from inhibition at 330 µM, split as lowest: < 80%; middle: ≥ 80% and < 90%; highest: ≥ 90%

Cn1cc(C2CCNCC2)c2ccc(Nc3ccc4ocnc4c3)cc21    highest
Cn1c2c(c3ccc(N4CCOCC4)nc31)CCCC2    lowest
CN1CCN(C(=O)c2ccc(Nc3ccc4c(c3)OCO4)cc2)CC1    lowest
COc1ccc(Nc2ccc3c(C4CCNCC4)c[nH]c3n2)cc1F    middle
c1cc2c(cc1Nc1ccc3c(C4CCNCC4)c[nH]c3c1)CCC2    highest
COc1ccc(Nc2ccc3c(C4CCNCC4)cn(C)c3c2)cc1F    highest
CNC1CCc2c(c3ccc(Nc4ccc(N5CCN(C)CC5)cc4)nc3n2C)C1 (stereo not shown)    middle
c1cc2cc(Nc3ccc4cc[nH]c4c3)ccc2[nH]1    highest
c1cc(N2CCOCC2)ccc1Nc1ccc2c(C3CCNCC3)c[nH]c2c1    highest
c1nc2c(C3CCNCC3)c[nH]c2cc1Nc1ccc2c3c([nH]c2n1)CCCC3    highest
COc1ccc(Nc2ccc3[nH]cc(C4CCN(C)CC4)c3c2)cc1F    lowest
CN1CCC(c2c[nH]c3ccc(Nc4ccc(F)c(F)c4)cc23)CC1    lowest
COc1ccc(Nc2ccc3c4c(n(C)c3c2)CCC(OC)C4)cc1OC (stereo not shown)    highest

====

- systemUnderTest: Aβ1-42 peptide (Homo sapiens)
- experimentalDetails: Thioflavin T spectrofluorescence assay (ThT-assay): inhibition of Aβ1-42 aggregation (% inhibition at 330 μM; IC50 from dilution series)
- conditions: 24 h, read-out: Inhibition at 330 μM [%], ThT assay; 330 μM small molecule, 33 μM Aβ1-42 (10:1), 24 hrs at 37° C.; mean ± standard deviation of two independent experiments
readoutType: inhibition at 330 µM (%)

Cn1c2c(c3cc(Nc4ccc5c(c4)OCCO5)ccc31)CN(CCCCS(C)(=O)=O)CC2    66.2
COC1CCc2c(c3ccc(Nc4ccc5c(c4)OCCO5)nc3n2C)C1 (centres unmarked)    92.1
CNC1CCc2c(c3ccc(Nc4ccc(C)c(OC)c4)nc3n2C)C1 (centres unmarked)    96.3
CNC1CCc2c(c3ccc(Nc4ccc(OC)c(OC)c4)cc3n2C)C1 (centres unmarked)    99.2
CN1CCC(c2c[nH]c3cc(Nc4ccc5c(C6CCN(C)CC6)cn(C)c5n4)ccc23)CC1    80

====

Measured inhibition at 330 µM, listed per entry.
- systemUnderTest: Aβ1-42 peptide (Homo sapiens, UniProt P05067)
- Sequence (P05067 672-713 limits assumed): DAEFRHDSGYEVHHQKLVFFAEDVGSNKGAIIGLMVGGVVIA
- experimentalDetails: Thioflavin T spectrofluorescence assay (ThT-assay): inhibition of Aβ1-42 aggregation (% inhibition at 330 μM; IC50 from dilution series)
- conditions: 24 h, read-out: Inhibition at 330 μM [%], ThT assay; 330 μM small molecule, 33 μM Aβ1-42 (10:1), 24 hrs at 37° C.; mean ± standard deviation of two independent experiments
readoutType: inhibition at 330 µM (%)

CN1CCC(c2cn(C)c3nc(Nc4ccc5c(c4)CN(C)CC5)ccc23)CC1    80.8
Cn1cc(C2CCNCC2)c2cc(Nc3ccc(F)c(F)c3)ccc21    85.1
CNC1CCc2[nH]c3nc(Nc4ccc(F)c(F)c4)ccc3c2C1 (stereo not shown)    77.4
CN1CCC(c2cn(C)c3nc(Nc4ccc5c(c4)OCO5)ccc23)CC1    84.4

====

- systemUnderTest: Aβ1-42 peptide (Homo sapiens)
- experimentalDetails: Thioflavin T spectrofluorescence assay (ThT-assay): inhibition of Aβ1-42 aggregation (% inhibition at 330 μM; IC50 from dilution series)
- conditions: IC50 μM 2nd assay, ThT assay, dilution series 330 μM to 0.08 μM; 2nd assay
We begin with a simple list: items and their reported IC50.
readoutType: IC50 (µM)

CNC1CCc2c(c3ccc(Nc4ccc5c(c4)OCCO5)nc3n2C)C1 (single isomer, unassigned) [Example 217b]    5.9
CNC1CCc2c(c3ccc(Nc4ccc(F)c(F)c4)nc3n2C)C1 (racemic) [Example 26]    16.8
CNC1CCc2c(c3ccc(Nc4ccc(F)c(F)c4)nc3n2C)C1 (single isomer, unassigned) [Example 214b]    7.7
CNC1CCc2c(c3ccc(Nc4ccc5c(c4)OCCO5)nc3n2C)C1 (racemic) [Example 156]    26.7

====

- systemUnderTest: Aβ1-42 peptide (Homo sapiens, UniProt P05067)
- experimentalDetails: Thioflavin T spectrofluorescence assay (ThT-assay): inhibition of Aβ1-42 aggregation (% inhibition at 330 μM; IC50 from dilution series)
- conditions: 24 h, read-out: Inhibition at 330 μM [%], ThT assay; 330 μM small molecule, 33 μM Aβ1-42 (10:1), 24 hrs at 37° C.; mean ± standard deviation of two independent experiments
The reader will find reported inhibition at 330 µM values listed item by item below.
readoutType: inhibition at 330 µM (%)

Fc1ccc(Nc2ccc3c(c2)OCO3)cc1F [Example 186]    66.5
c1cc2ccc(Nc3ccc4cc[nH]c4n3)cc2[nH]1 [Example 12]    75.3
Cn1c2c(c3cc(Nc4ccc(F)nc4)ccc31)CS(=O)(=O)CC2 [Example 183]    42.3
CNC1CCc2c(c3ccc(Nc4ccc5[nH]cc(C6CCNCC6)c5c4)nc3n2C)C1 (stereo not drawn) [Example 92]    99.6
CC(=O)Nc1cccc(Nc2ccc3c(C4CCNCC4)c[nH]c3n2)c1 [Example 143]    64.8
CN1CCC(c2c[nH]c3cc(Nc4cc(F)c(F)c(F)c4)ccc23)CC1 [Example 113]    90.5
CNC1CCc2[nH]c3ccc(Nc4ccc(F)c(OC)c4)cc3c2C1 (stereo not drawn) [Example 116]    89
CN1CCN(c2ccc(Nc3ccc4c5c(n(C)c4n3)CCCC5)cc2)CC1 [Example 166]    93.6
Cn1cnc2ccc(Nc3ccc4c5c(n(C)c4n3)CCC5)cc21 [Example 175]    75.5

====

- systemUnderTest: Aβ1-42 peptide (Homo sapiens)
- experimentalDetails: Thioflavin T spectrofluorescence assay (ThT-assay): inhibition of Aβ1-42 aggregation (% inhibition at 330 μM; IC50 from dilution series)
- conditions: 24 h, read-out: Inhibition at 330 μM [%], ThT assay; 330 μM small molecule, 33 μM Aβ1-42 (10:1), 24 hrs at 37° C.; mean ± standard deviation of two independent experiments
Readings of inhibition at 330 µM for the listed molecules
readoutType: inhibition at 330 µM (%)

c1cc2c(C3CCNCC3)c[nH]c2cc1Nc1ccc2c(C3CCNCC3)c[nH]c2n1    92
c1ccc(Nc2ccc3c(c2)OCO3)cc1    55.2
CNC1CCc2c(c3ccc(Nc4ccc5c(c4)OCO5)nc3n2C)C1 (centres unmarked)    95
CN1CCC(c2c[nH]c3cc(Nc4ccc5c(C6CCN(C)CC6)c[nH]c5n4)ccc23)CC1    88.7
Cn1c2c(c3cc(Nc4ccc(C(F)(F)F)nc4)ccc31)CS(=O)(=O)CC2    30.2

====

- systemUnderTest: Aβ1-42 peptide (Homo sapiens, UniProt P05067)
- experimentalDetails: Thioflavin T spectrofluorescence assay (ThT-assay): inhibition of Aβ1-42 aggregation (% inhibition at 330 μM; IC50 from dilution series)
- conditions: 24 h, read-out: Inhibition at 330 μM [%], ThT assay; 330 μM small molecule, 33 μM Aβ1-42 (10:1), 24 hrs at 37° C.; mean ± standard deviation of two independent experiments
readoutType: inhibition at 330 µM

COc1cc(Nc2ccc3c(c2)c2c(n3C)CCC(OC)C2)ccc1F (stereo not shown)    80.8%
FC(F)(F)c1ccc(Nc2ccc3[nH]cc(C4CCNCC4)c3c2)cn1    58.5%
Cn1cc(C2CCNCC2)c2ccc(Nc3ccc(N4CCOCC4)cc3)nc21    90.7%
c1nc2[nH]cc(C3CCNCC3)c2cc1Nc1ccc2c3c([nH]c2n1)CCC3    95.5%
CNC1CCc2[nH]c3nc(Nc4ccc5c(C6CCNCC6)c[nH]c5c4)ccc3c2C1 (stereo not shown)    96.5%
CN1CCC(c2c[nH]c3cc(Nc4ccc5c(C6CCN(C)CC6)c[nH]c5c4)ccc23)CC1    99.2%
Cn1cc(C2CCNCC2)c2cc(Nc3ccc4c(C5CCNCC5)cn(C)c4c3)ccc21    96%
CN(C)C1CCc2[nH]c3ccc(Nc4ccc(N5CCOCC5)cc4)cc3c2C1 (stereo not shown)    96.9%
Cn1c2c(c3ccc(Nc4ccc(F)c(F)c4)nc31)CC(OCCF)CC2 (stereo not shown)    88.6%
N#Cc1c[nH]c2nc(Nc3ccc(F)cc3)ccc12    58.6%
c1cc2ccc(NC3CCNCC3)nc2[nH]1    48.4%
Cn1cc(C2CCNCC2)c2cc(Nc3ccc4c5c([nH]c4n3)CCC5)ccc21    99%
Cn1cc(C2CCNCC2)c2ccc(Nc3ccc(F)c(F)c3)cc21    90.9%
Cn1c2c(c3cc(Nc4ccc5c(c4)OCCO5)ccc31)CS(=O)(=O)CC2    29.6%
COC1CCc2c(c3ccc(Nc4ccc(F)c(F)c4)nc3n2C)C1 (stereo not shown)    93.5%
COc1cc(Nc2ccc3c(C4CCN(C)CC4)c[nH]c3c2)ccc1F    82.2%
COC1CCc2c(c3ccc(Nc4ccc(F)cc4)cc3n2C)C1 (stereo not shown)    89.7%
CC(=O)N1CCN(c2ccc(Nc3ccc4c5c(n(C)c4n3)CCCC5)cc2)CC1    70.8%
CNC1CCc2c(c3ccc(Nc4ccc5c(c4)NC(=O)CO5)nc3n2C)C1 (stereo not shown)    96.6%
Cn1c2c(c3ccc(Nc4ccc(N5CCOCC5)cc4)nc31)CCCC2    78.1%
CN1CCC(c2c[nH]c3cc(N4CCc5ccccc5C4)ccc23)CC1    97.8%
Fc1ccc(Nc2ccc3c(C4CCNCC4)c[nH]c3c2)cc1F    83.6%
Cn1cnc2ccc(Nc3ccc4c(c3)c3c(n4C)CCS(=O)(=O)C3)cc21    6.6%
c1cc2c(C3CCNCC3)c[nH]c2cc1Nc1ccc2c3c([nH]c2n1)CCC3    99.4%
CN1CCC(c2c[nH]c3cc(Nc4ccc5c(c4)OCO5)ccc23)CC1    91.3%
CNC1(C)CCc2c(c3ccc(Nc4ccc(OC)c(OC)c4)nc3n2C)C1 (stereo not shown)    75.1%
FC(F)(F)c1ccc(Nc2ccc3cc[nH]c3n2)cn1    53.5%
c1ccc2c(c1)CCC2Nc1ccc2c(C3CCNCC3)c[nH]c2c1 (stereo not shown)    94.4%
CN1CCC(c2c[nH]c3cc(Nc4ccc5c(c4)OCCN5C)ccc23)CC1    106%
Fc1ccc(Nc2ccc3cc[nH]c3n2)cc1F    56.6%
CNC1CCc2[nH]c3ccc(Nc4ccc5c(C6CCNCC6)cn(C)c5c4)cc3c2C1 (stereo not shown)    98.9%
CN1CCC(c2cn(C)c3nc(Nc4ccc(F)c(F)c4)ccc23)CC1    88.5%
CNC1CCc2c(c3ccc(Nc4cc(F)c(F)cc4F)nc3n2C)C1 (stereo not shown)    91.4%
CN1CCC(c2c[nH]c3cc(Nc4ccc5[nH]cc(C6CCNCC6)c5c4)ccc23)CC1    90.4%
CN1CCC(c2c[nH]c3cc(Nc4ccc(F)c(F)c4)ccc23)CC1    84.5%
c1cc2c(C3CCNCC3)c[nH]c2nc1Nc1ccc2c3c([nH]c2n1)CCCC3    98.1%
CN1CCC(c2c[nH]c3cc(Nc4ccc5c(c4)OCCCO5)ccc23)CC1    75%
